I'd appreciate it if you could supply T/C values for the items below.
Tested on: BDF1 mice, Adenocarcinoma 755 s.c., tumor weight T/C
Assay Method Text: NCI In Vivo Anticancer Drug Screen. Data for tumor model Adenocarcinoma 755 (subcutaneous) in B6D2F1 (BDF1) mice
Condition Details: endpoint: mean tumor weight; dose: 25.0 mg/kg/injection; schedule: Q01DX011 (ip); vehicle: methylcellulose (MC); higher = larger tumour

Please review the entries below; each comes with its answer.
# Molecule, Measured On, T/C
data = [
    ("CC(C)Cn1cnc2c(SC(C)C)nc(N)nc21", "BDF1 mice, Adenocarcinoma 755 s.c., tumor weight T/C", "4 % of control"),
    ("Cn1cnc2nc[nH]c2c1=S", "BDF1 mice, Adenocarcinoma 755 s.c., tumor weight T/C", "64 % of control"),
    ("Nc1ncc2[nH]c(N)nc2n1", "BDF1 mice, Adenocarcinoma 755 s.c., tumor weight T/C", "58 % of control"),
    ("Cc1ccc(/C=N/Nc2nc3c(c(=O)n(C)c(=O)n3C)n2C)cc1", "BDF1 mice, Adenocarcinoma 755 s.c., tumor weight T/C", "77 % of control"),
    ("CCCCNc1ncnc2c1cnn2C1CCCCO1 (stereo unspecified)", "BDF1 mice, Adenocarcinoma 755 s.c., tumor weight T/C", "12 % of control"),
]

# next molecule below
**Q:** Quick one: T/C for Cn1c(=O)c2[nH]c(COCc3nc4c([nH]3)c(=O)n(C)c(=O)n4C)nc2n(C)c1=O ?
**A:** 48 % of control

###

System: BDF1 mice, Adenocarcinoma 755 s.c., tumor weight T/C
Assay Method Text: NCI In Vivo Anticancer Drug Screen. Data for tumor model Adenocarcinoma 755 (subcutaneous) in B6D2F1 (BDF1) mice
Condition Details: endpoint: mean tumor weight; dose: 5.0 mg/kg/injection; schedule: Q01DX011 (sc); vehicle: steriod suspending solution; higher = larger tumour
Parameter Measured: T/C

Please review the entries below; each comes with its answer.
# Chem Smiles, T/C
rows = [
    ("CC(=O)OCC(=O)[C@@]1(O)CC[C@H]2[C@@H]3CCC4=CC(=O)CC[C@]4(C)[C@H]3[C@@H](O)C[C@@]21C", "56 % of control"),
    ("C[C@]12CC[C@H](O)C[C@@H]1CC[C@@H]1[C@@H]2C(=O)C[C@]2(C)C3=CC(=O)O[C@H]3C[C@@H]12", "73 % of control"),
]

Could you report T/C for every entry in the following list?
1. C[C@]12CCC(=O)C=C1CC[C@@H]1[C@@H]2C(=O)C[C@@]2(C)[C@H]1CC[C@]2(O)C(=O)COS(=O)(=O)O
2. CC(=O)OCC(=O)[C@@]1(O)CC[C@H]2[C@@H]3C[C@H](C)C4=CC(=O)C=C[C@]4(C)[C@H]3[C@@H](O)C[C@@]21C

**A:**
["100 % of control", "57 % of control"]

###

System: BDF1 mice, Adenocarcinoma 755 s.c., tumor weight T/C
Assay Method Text: NCI In Vivo Anticancer Drug Screen. Data for tumor model Adenocarcinoma 755 (subcutaneous) in B6D2F1 (BDF1) mice
Condition Details: endpoint: mean tumor weight; dose: 12.0 mg/kg/injection; schedule: Q01DX011 (ip); vehicle: carboxymethylcellulose (CMC); higher = larger tumour
Parameter Measured: T/C

Could you report T/C for every entry in the following list?
1. CC[N+](C)(C)c1ncnc2nc[nH]c12
2. CSc1nc(Cl)c(Br)c(Sc2nc(N)nc3nc[nH]c23)n1
3. [I][Hg][CH2][C@H]1CO[C@H]([CH2][Hg][I])CO1

**A:**
1: 88 % of control; 2: 59 % of control; 3: 46 % of control

###

Test system: BDF1 mice, Adenocarcinoma 755 s.c., tumor weight T/C
Assay Method Text: NCI In Vivo Anticancer Drug Screen. Data for tumor model Adenocarcinoma 755 (subcutaneous) in B6D2F1 (BDF1) mice
Condition Details: endpoint: mean tumor weight; dose: 75.0 mg/kg/injection; schedule: Q01DX011 (ip); vehicle: saline; higher = larger tumour
Parameter Measured: T/C

Please review the entries below; each comes with its answer.
# Compound, Reported Value
rows = [
    ("c1nc2c3c(n1)ncn3CCN2", "74 % of control"),
    ("[O-][N+](CCO)(CCO)c1ncnc2nc[nH]c12", "72 % of control"),
    ("CC(Sc1nc(N)nc2nc[nH]c12)C(=O)O (stereo unspecified)", "74 % of control"),
    ("CC(=O)Nc1cc2c(cc1Br)-c1ccccc1C2O (stereo unspecified)", "52 % of control"),
    ("Cc1ccc(S(=O)(=O)NCCCCC(Nc2ncnc3nc[nH]c23)C(=O)O)cc1 (stereo unspecified)", "21 % of control"),
]

**Q:** Quick one: T/C for c1ccc2cc(SCCCN3CCOCC3)ccc2c1 ?
**A:** 59 % of control

###

Tested on: BDF1 mice, Adenocarcinoma 755 s.c., tumor weight T/C
Assay Method Text: NCI In Vivo Anticancer Drug Screen. Data for tumor model Adenocarcinoma 755 (subcutaneous) in B6D2F1 (BDF1) mice
Condition Details: endpoint: mean tumor weight; dose: 10.0 mg/kg/injection; schedule: Q01DX011 (ip); vehicle: methylcellulose (MC); higher = larger tumour
Parameter Measured: T/C

Please review the entries below; each comes with its answer.
# Molecule, T/C
data = [
    ("O=C(O)CCCc1ccc(N(CCCl)CCCl)cc1", "10 % of control"),
    ("CC(Sc1ncnc2nc[nH]c12)c1ccccc1 (stereo unspecified)", "18 % of control"),
    ("O=C(CCl)N1c2ccccc2Oc2cc3ccccc3cc21", "54 % of control"),
    ("O=CNC(Cc1ccc(N(CCCl)CCCl)cc1)C(=O)O (stereo unspecified)", "34 % of control"),
    ("Cc1cc(=O)c2c(C)cccc2[nH]1", "60 % of control"),
]

**Q:** Quick one: T/C for CN(C)c1ccc(/C=C\c2ccnc3ccccc23)cc1 ?
**A:** 96 % of control

###

System: BDF1 mice, Adenocarcinoma 755 s.c., tumor weight T/C
Assay Method Text: NCI In Vivo Anticancer Drug Screen. Data for tumor model Adenocarcinoma 755 (subcutaneous) in B6D2F1 (BDF1) mice
Condition Details: endpoint: mean tumor weight; dose: 24.0 mg/kg/injection; schedule: Q01DX011 (ip); vehicle: carboxymethylcellulose (CMC); higher = larger tumour
Parameter Measured: T/C

# Molecule, Reported Value
records = [
    ("CCCCCCCCCCCC[N+](C)(C)c1ncnc2nc[nH]c12", "55 % of control"),
    ("CSc1nc(C)c(Br)c(Sc2nc(N)nc3nc[nH]c23)n1", "6 % of control"),
    ("CCCOP(=S)(N1CC1C)N1CC1(C)C (centres undefined)", "61 % of control"),
]

**Q:** Quick one: T/C for CCCC(=O)OCC1OC(n2cnc3c(=S)nc(N)[nH]c32)C(OC(=O)CCC)C1OC(=O)CCC (centres undefined) ?
**A:** 1 % of control

###

Test system: BDF1 mice, Adenocarcinoma 755 s.c., tumor weight T/C
Assay Method Text: NCI In Vivo Anticancer Drug Screen. Data for tumor model Adenocarcinoma 755 (subcutaneous) in B6D2F1 (BDF1) mice
Condition Details: endpoint: mean tumor weight; dose: 50.0 mg/kg/injection; schedule: Q01DX011 (ip); vehicle: saline; higher = larger tumour
Parameter Measured: T/C

Could you report T/C for every entry in the following list?
1. O=C(O)C(=O)O.[U]
2. COCCCNS(=O)(=O)c1ncnc2nc[nH]c12
3. Nc1ncnc2c1ncn2C1CCCC(CO)O1 (centres undefined)
4. Nc1nc(N)c(N)c(N)n1

**A:**
1: 36 % of control; 2: 5 % of control; 3: 196 % of control; 4: 82 % of control

###

Tested on: BDF1 mice, Adenocarcinoma 755 s.c., tumor weight T/C
Assay Method Text: NCI In Vivo Anticancer Drug Screen. Data for tumor model Adenocarcinoma 755 (subcutaneous) in B6D2F1 (BDF1) mice
Condition Details: endpoint: mean tumor weight; dose: 120.0 mg/kg/injection; schedule: Q01DX011 (ip); vehicle: saline; higher = larger tumour
Parameter Measured: T/C

# Molecule, T/C
rows = [
    ("C[N+](C)(C)c1nc(N)nc2c1ncn2C1OC(CO)C(O)C1O (centres undefined)", "52 % of control"),
    ("Nc1nc(I)c2ncn(C3OC(CO)C(O)C3O)c2n1 (centres undefined)", "82 % of control"),
    ("Cn1cnc2c(ncn2C2CC(O)C(CO)O2)c1=N (centres undefined)", "80 % of control"),
]

# next molecule below
**Q:** Quick one: T/C for N#[N+]c1cn(C2CC(O)C(CO)O2)c(=O)[nH]c1=O (centres undefined) ?
**A:** 94 % of control

###

I'd appreciate it if you could supply T/C values for the items below.
Tested on: BDF1 mice, Adenocarcinoma 755 s.c., tumor weight T/C
Assay Method Text: NCI In Vivo Anticancer Drug Screen. Data for tumor model Adenocarcinoma 755 (subcutaneous) in B6D2F1 (BDF1) mice
Condition Details: endpoint: mean tumor weight; dose: 400.0 mg/kg/injection; schedule: Q01DX011 (ip); vehicle: carboxymethylcellulose (CMC); higher = larger tumour

Please review the entries below; each comes with its answer.
# Molecule, Parameter Measured, Reported Value
records = [
    ("O=C1C(Cl)=C(Cl)C(=O)C2=C1C1c3ccccc3C2c2ccccc21", "T/C", "33 % of control"),
    ("CC(C)CCS(=O)(=O)OCCCCOS(=O)(=O)CCC(C)C", "T/C", "56 % of control"),
    ("CC(=O)OCC1OC(n2cnc3c(=O)[nH]cnc32)C(OC(C)=O)C1OC(C)=O (stereo not drawn)", "T/C", "110 % of control"),
    ("Nc1[nH]cnc(=S)c1NC=O", "T/C", "29 % of control"),
    ("[N-]=[N+]=C1C(=O)NC(=O)N2C3CC(O)C(COC12)O3 (stereo not drawn)", "T/C", "40 % of control"),
    ("O=[N+]([O-])c1ccc(Oc2cc(Cl)c(Cl)cc2Cl)c([N+](=O)[O-])c1", "T/C", "61 % of control"),
]

Could you report T/C for every entry in the following list?
1. COc1ccc(C(=O)OCC2OC(n3cnc4c(=S)nc[nH]c43)C(OC(=O)c3ccc(OC)cc3)C2OC(=O)c2ccc(OC)cc2)cc1 (stereo not drawn)
2. CC(=O)OCC1OC(n2cnc3c(=O)[nH]c(N)nc32)C(OC(C)=O)C1OC(C)=O (stereo not drawn)

**A:**
1. 2 % of control
2. 87 % of control
